The reported numbers originate from patent US9932317B2.

- Tested on: EZH2 target genes (KRT17, FBXO32) in MDA-MB-231 cells
- Assay Procedure: Real-time RT-PCR cell based assay for up-regulation of H3K27me3 silenced genes
- Assay Context: MDA-MB-231, 10 μM, 48 h, normalised to GAPDH

Compound	FBXO32 RNA levels
COc1cc2nc(N3CCN(c4ccccn4)CC3)nc(NC3CCN(Cc4ccccc4)CC3)c2cc1OC [HKMTi-1-011]	up-regulate
COc1cc2nc(N3CCCCC3)nc(NC3CCN(Cc4ccccc4)CC3)c2cc1OC [HKMTi-1-022]	up-regulate
COc1cc2nc(N3CCN(C)CC3)nc(NC3CCN(Cc4ccccc4)CC3)c2cc1OC [HKMTi-1-005]	up-regulate
